Values from patent US10227331B2

Each entry below carries its reported pIC50.
# assay system: NDM-1 (Klebsiella pneumoniae, UniProt C7C422)
# Sequence (C7C422 whole entry, looked up, species assumed): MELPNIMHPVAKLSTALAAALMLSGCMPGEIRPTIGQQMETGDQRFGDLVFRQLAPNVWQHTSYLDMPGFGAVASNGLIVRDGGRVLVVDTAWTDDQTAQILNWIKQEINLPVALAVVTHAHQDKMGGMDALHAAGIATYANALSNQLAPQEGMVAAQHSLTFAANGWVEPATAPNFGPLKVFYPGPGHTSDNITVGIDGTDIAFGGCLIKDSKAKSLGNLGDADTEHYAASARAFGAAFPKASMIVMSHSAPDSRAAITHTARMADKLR
# test description: biochemical
# Format: biochemical
# protocol conditions: CCF2-FA substrate, 2 hours at 25° C; read-out: NDM-1 IC50
When answering, recall that pIC50 equals minus log10 of the concentration in mol/L, and write that number alone.

{"compound": "Nc1nc2c(-c3ccc(SC4CNC4)c(S(N)(=O)=O)c3-c3nn[nH]n3)cccc2[nH]1 [Example 2]", "pIC50": 8.65}
{"compound": "NCC(O)CS(=O)(=O)c1ccc(-c2cccc3sc(N)nc23)c(-c2nn[nH]n2)c1S(N)(=O)=O (centres unmarked) [Example 97]", "pIC50": 10.19}
{"compound": "Nc1ccc(-c2ccc(S(=O)(=O)C3CCNCC3)c(S(N)(=O)=O)c2-c2nn[nH]n2)cn1 [Example 24]", "pIC50": 9.42}
{"compound": "NS(=O)(=O)c1c(S(=O)(=O)C2CNC2)ccc(-c2cccc3[nH]c(=O)[nH]c23)c1-c1nnn[nH]1 [Example 299]", "pIC50": 9.73}

Consider NC[C@H](O)CS(=O)(=O)c1ccc(-c2ccc(N)nc2)c(-c2nn[nH]n2)c1S(N)(=O)=O [Example 365] . Its measured pIC50 is 8.82

Measured pIC50 of CC(=O)Nc1nc2c(-c3ccc(S(=O)(=O)CCN)c(S(N)(=O)=O)c3-c3nn[nH]n3)cccc2s1 [Example 82] : 10.06

Memo: NS(=O)(=O)c1c(S(=O)(=O)CC2CNC2)ccc([C@H]2CC[C@H](N)CC2)c1-c1nnn[nH]1 [Example 204] , reported pIC50: 7.79

Value of measured pIC50 for the entry NCCS(=O)(=O)c1ccc(-c2cccc3ccc(N)nc23)c(-c2nn[nH]n2)c1S(N)(=O)=O [Example 71] : 9.94

For Cn1nc(N)c2c(-c3ccc(S(=O)(=O)C4CNC4)c(S(N)(=O)=O)c3-c3nnn[nH]3)cccc21 [Example 265] the compound record lists pIC50 as 9.77

According to the records, this compound Cc1n[nH]c2ccc(-c3ccc(S(=O)(=O)C4CNC4)c(S(N)(=O)=O)c3-c3nnn[nH]3)cc12.O=C(O)C(F)(F)F [Example 126, 2,2,2-trifluoroacetate] displays pIC50 of 9.37

Form field pIC50, entry Nc1nc2c(-c3ccc(S(=O)(=O)[C@@H]4CN[C@H](CO)C4)c(S(N)(=O)=O)c3-c3nn[nH]n3)cccc2s1 [Example 349] : 10.18

Reported pIC50 ( NS(=O)(=O)c1c(S(=O)(=O)C2CNC2)ccc(-c2cnc(N3CCCC3)s2)c1-c1nnn[nH]1.O=C(O)C(F)(F)F [Example 121, 2,2,2-trifluoroacetate] ) = 9.13

Recorded result, Nc1cncc(-c2ccc(S(=O)(=O)C3CNC3)c(S(N)(=O)=O)c2-c2nnn[nH]2)c1.O=C(O)C(F)(F)F [Example 112, 2,2,2-trifluoroacetate] , pIC50: 8.60

Please fill in: pIC50 reported for Nc1nc2c(-c3ccc(S(=O)(=O)[C@@H]4CN[C@H](CO)C4)c(S(N)(=O)=O)c3-c3nn[nH]n3)cccc2[nH]1 [Example 350] = 9.60
